Experiment: Cytotoxicity against rat L6 cells
Assay type: cell-based
Conditions: read-out: TD50 (the source's name)
Task for the reader: assign each of the following molecules its reported CC50.

Answered cases to consult:
1. CC(=O)OCc1ccc(NC(=O)N2CCC(CO)C2)cc1 (stereo unspecified)	> 308 µM
2. COC(=O)CCCNCCc1ccc(NC(=O)c2ccc(COC(C)=O)cc2)cc1	> 218 µM
3. COC(=O)CCCNCc1ccc(NC(=O)c2ccc(COC(C)=O)cc2)cc1	161 µM
4. CC(=O)OCc1ccc(NC(=O)N2CCC(CN3CCCC3=O)C2)cc1 (stereo unspecified)	> 250 µM
5. COC(=O)CCCCCNCC1CCN(C(=O)Nc2ccc(COC(C)=O)cc2)C1 (stereo unspecified)	> 214 µM

From here, focus on the item given below.
Challenge: Param item = COC(=O)CCCNCC1CCN(C(=O)Nc2ccc(COC(C)=O)cc2)C1 (stereo unspecified) ; retrieve measured CC50.
Response given: > 230 µM
